# pIC50 annotations
target: human α7-nAChR (Homo sapiens); test: Two-electrode voltage clamp, antagonism of currents activated by 1 mM ACh, test compound coapplied, X. laevis oocytes; type: cell-based; conditions: coapplied with 1 mM ACh, up to 100 μM; 95% confidence interval in parentheses; NA = not inhibited even at 100 μM; read-out: α7 IC50 (AUC)
Lab note — pIC50 values are minus log10 of concentrations in M.

Use the examples below as a reference point.
**Q:** Return reported pIC50; argument: CC[N+](CC)(CC)CCOc1ccc(-c2nc3ccccc3[nH]2)cc1 [Compound 29]
**A:** 3.71

**Q:** Would you mind telling me what pIC50 value was observed for CC[N+](CC)(CC)CCOc1ccc(-c2ccc3[nH]ccc3c2)cc1.[I-] [Compound 31] ?
**A:** 5.73

**Q:** Bench note: what pIC50 did CC[N+](CC)(CC)CCOc1ccc(-c2nc3ccccc3o2)cc1.[I-] [Compound 28] show?
**A:** 5.65

**Q:** Any idea what its pIC50 is? The compound is CC[N+](CC)(CC)CCOc1ccc(/N=N/c2ccccc2)cc1.[I-] [Compound 27]
**A:** 5.26

**Q:** Given the entry CC[N+](CC)(CC)CCOc1ccc(NC(=O)c2ccccc2)cc1 [Compound 25] , report its measured pIC50.
**A:** 4.57

Proceed to the following item.
**Q:** Quick one: pIC50 for CC[N+](CC)(CC)CCOc1ccc(-c2ccc3cc[nH]c3c2)cc1.[I-] [Compound 30] ?
**A:** 5.71

----------
biological target: human α3β4-nAChR subtype (Homo sapiens, UniProt P30926+P32297); assay: Competition binding with [3H]epibatidine, membranes of SH-EP1 cells stably transfected with α3 and β4; details: human α3β4 expressed in SH-EP1 cells; confidence interval in parentheses; read-out: α3β4-nAChR [3H]-Epi Ki
Flag rule - Ki less than 400 nM flags Y; the remaining entries get N.

Here's what some known entries look like.
**Q:** Input CC[N+](CC)(CC)CCOc1ccc(/C=C/c2cc(O)cc(O)c2)cc1 ; condition: Ki strictly below 400 nM. Does it hold?
**A:** N

**Q:** Could you please tell me whether Ki recorded for CC[N+](CC)(CC)CCOc1ccc(-c2nc3ccccc3[nH]2)cc1 is less than 400 nM?
**A:** Y

**Q:** Quick check: Ki of C[N+]1(C)CC[C@@H](Oc2ccc(-c3ccc4[nH]ccc4c3)cc2)C1.[I-] under 400 nM?
**A:** Y

New cases:
**Q:** Dear colleague, could you confirm whether Ki of CC[N+](CC)(CC)CCOc1ccc(/C=C/c2cc(OC)cc(OC)c2)cc1 falls below 400 nM? Thanks.
**A:** N

**Q:** Consider the molecule CC[N+](CC)(CC)CCOc1ccc(C#Cc2ccccc2)cc1 . Is its Ki strictly less than 400 nM?
**A:** N

**Q:** In plain terms, does CC[N+](CC)(CC)CCOc1ccc(C(=O)Nc2ccccc2)cc1 come in under 400 nM for Ki?
**A:** Y

**Q:** Hello, is Ki of the following molecule strictly smaller than 400 nM? CC[N+](CC)(CC)CCOc1ccc(-c2ccc3occc3c2)cc1
**A:** Y

**Q:** Is it true that Ki reported for CC[N+](CC)(CC)CCOc1ccc(/C=C/c2cccc(C(F)(F)F)c2)cc1 is less than 400 nM?
**A:** N

----------
biological target: human α3β4-nAChR subtype (Homo sapiens, UniProt P30926+P32297); test: Competition binding with [3H]epibatidine, membranes of SH-EP1 cells stably transfected with α3 and β4; conditions: human α3β4 expressed in SH-EP1 cells; confidence interval in parentheses; read-out: α3β4-nAChR [3H]-Epi Ki
Consider the following compounds and their measured Ki readings.
Your answer should be a plain number; it is taken to be in nM.

**Q:** What does the data say about its Ki? Entry: CC[N+](CC)(CC)CCOc1ccc(-c2nc3ccccc3o2)cc1.[I-]
**A:** 653

**Q:** Bench note: what Ki did C=Cc1ccc(OCC[N+](CC)(CC)CC)cc1 show?
**A:** 1070

**Q:** Could you tell me which Ki is on file for CC[N+](CC)(CC)CCOc1ccc(CCc2ccccc2)cc1.[I-] ?
**A:** 1250

**Q:** Sample CC[N+](CC)(CC)CCOc1ccc(/C=C/c2cccc3ccccc23)cc1 — what was its Ki?
**A:** 501

# input for lookup
**Q:** Which Ki value belongs to CC[N+](CC)(CC)CCOc1ccc(-c2ccc3cc[nH]c3c2)cc1.[I-] ?
**A:** 174

----------
Listed here are compounds together with their documented pKi.
target: human α4β2-nAChR subtype (Homo sapiens, UniProt P17787+P43681); construct: gift of Dr. Jon Lindstrom; test: Competition binding with [3H]epibatidine, membranes of HEK 293 cells stably transfected with α4 and β2; details: human α4β2 expressed in HEK 293 cells; confidence interval in parentheses; read-out: α4β2-nAChR [3H]-Epi Ki
Please report pKi as the negative decimal logarithm of the molar concentration, giving only the number.

Solved cases (10 shown):
**Q:** Recorded pKi for C=Cc1ccc(OCC[N+](CC)(CC)CC)cc1 [Compound 4] with human α4β2-nAChR subtype (Homo sapiens, UniProt P17787+P43681), please?
**A:** 4.62

**Q:** Notebook entry, human α4β2-nAChR subtype (Homo sapiens, UniProt P17787+P43681) assay: pKi of CC[N+](CC)(CC)CCOc1ccc(/C=C/c2cc(OC)cc(OC)c2)cc1 [Compound 21] = ?
**A:** 5.92

**Q:** Write down the reported pKi of CC[N+](CC)(CC)CCOc1ccc(C(=O)Nc2ccccc2)cc1 [Compound 26] , test system: human α4β2-nAChR subtype (Homo sapiens, UniProt P17787+P43681).
**A:** 4.64

**Q:** For human α4β2-nAChR subtype (Homo sapiens, UniProt P17787+P43681), provide pKi of CC[N+](CC)(CC)CCOc1ccc(-c2ccc3ccccc3c2)cc1 [Compound 8] please.
**A:** 5.74

**Q:** For human α4β2-nAChR subtype (Homo sapiens, UniProt P17787+P43681), provide pKi of CC[N+](CC)(CC)CCOc1ccc(/C=C/c2cccc(C(F)(F)F)c2)cc1 [Compound 15] please.
**A:** 4.66

**Q:** Param readout = pKi; param system = human α4β2-nAChR subtype (Homo sapiens, UniProt P17787+P43681); param query = CC[N+](CC)(CC)CCOc1ccc(NC(=O)c2ccccc2)cc1 [Compound 25] ; response: value
**A:** 5.35

**Q:** Recall the recorded pKi for CC[N+](CC)(CC)CCOc1ccc(/C=C/c2ccc(O)cc2)cc1 [Compound 20] with human α4β2-nAChR subtype (Homo sapiens, UniProt P17787+P43681) and state it.
**A:** 5.01

**Q:** GET /values?readout=pKi&system=human α4β2-nAChR subtype (Homo sapiens, UniProt P17787+P43681)&item= CC[N+](CC)(CC)CCOc1ccc(C#Cc2ccccc2)cc1 [Compound 7]
**A:** 4.71

**Q:** Value wanted: pKi (human α4β2-nAChR subtype (Homo sapiens, UniProt P17787+P43681)) of entry CC[N+](CC)(CC)CCOc1ccc(/C=C/c2ccc(C(F)(F)F)cc2)cc1 [Compound 16]
**A:** 4.98

**Q:** Report pKi for CC[N+](CC)(CC)CCOc1ccc(/C=C/c2cc(O)cc(O)c2)cc1 [Compound 22] tested on human α4β2-nAChR subtype (Homo sapiens, UniProt P17787+P43681).
**A:** 5.14

---
**Q:** Find pKi (human α4β2-nAChR subtype (Homo sapiens, UniProt P17787+P43681)) for the entry CC[N+](CC)(CC)CCOc1ccc(-c2ccccc2)cc1 [Compound 5]
**A:** 4.93

**Q:** # query: pKi | item C[N+]1(C)CC[C@@H](Oc2ccc(-c3ccc4[nH]ccc4c3)cc2)C1.[I-] [Compound 33] | system: human α4β2-nAChR subtype (Homo sapiens, UniProt P17787+P43681)
**A:** 5.29

**Q:** Missing value: pKi, human α4β2-nAChR subtype (Homo sapiens, UniProt P17787+P43681), entry CC[N+](CC)(CC)CCOc1ccccc1 [Compound 3] . Fill in?
**A:** 4.72

**Q:** Provide value of pKi for this record tested with human α4β2-nAChR subtype (Homo sapiens, UniProt P17787+P43681): CC[N+](CC)(CC)CCOc1ccc(/C=C/c2cccc(O)c2)cc1 [Compound 19]
**A:** 5.00

----------
biological target: human α7-nAChR (Homo sapiens); experiment: Two-electrode voltage clamp, antagonism of currents activated by 1 mM ACh, test compound coapplied, X. laevis oocytes; format: cell-based; conditions: supplementary CSV; read-out: alpha7 nAChR IC50 (peak current)
READOUT_LABEL: IC50

**Q:** // IC50 lookup, key: CC[N+](CC)(CC)CCOc1ccc(C(=O)Nc2ccccc2)cc1 [Compound 26]
**A:** > 100 µM

Each recorded value in this set is attributed to paper PMC9841521.
